Overview of reported R Saos-2His273 across a group of molecules:
Tested on: Saos-2-His-273 osteosarcoma cells
assay_protocol: WST-1 growth inhibition by structural analogues, Saos-2-His-273 cells with or without doxycycline
Type: cell-based, human
condition: ratio IC50p53null/IC50mtp53
endpoint_label: R Saos-2His273

{"columns": ["molecule", "observed_result"],
 "data": [
  ["COc1ncnc2c1ncn2CC1C(=O)C2CCN1CC2 (centres unmarked)", 1.9],
  ["Cc1cc2ncn(CC3C(=O)C4CCN3CC4)c2cc1C (centres unmarked)", 2.31],
  ["Cn1c(=O)c2c([nH]c(=O)n2CC2C(=O)C3CCN2CC3)n(C)c1=O (centres unmarked)", 2.01],
  ["CN1C(=O)C=CC1=O [N-methylmaleimide]", 1.6],
  ["O=C1C2CCN(CC2)C1CN1C=NC2C(Cl)=NC(Cl)=NC21 (centres unmarked)", 2.44],
  ["O=C1C=CC(=O)N1 [maleimide]", 2.25],
  ["C=Cc1nc2ccccc2c(=O)[nH]1", 1.27],
  ["Nc1ncnc2nnn(CC3C(=O)C4CCN3CC4)c12 (centres unmarked)", 2.61]
]}

* * *

Tested on: H1299-His-175 lung adenocarcinoma cells
assay_protocol: WST-1 growth inhibition by structural analogues, H1299-His-175 cells with or without doxycycline
Format: cell-based, human
condition: Homo sapiens; Dox+ (p53 null), 48 h, WST-1; read-out: IC50 H1299-His175 Dox+
Procedure: After 12h cells were treated with analogues and incubated with compounds for 48 h. Then WST-1 cell proliferating reagent was added to each well and cell survival was estimated by reading absorbance at 450 nm by ELISA reader. […] The coefficients (a,b,c) of the equation were determined by employing Levenberg-Marquardt algorithm. The specificity of each compound was determined by calculation of ratio IC50p53null/IC50mtp53. […]
Threshold 5 µM: IC50 strictly smaller gives true (1), otherwise false (0).

{"columns": ["compound", "assigned_class"],
 "data": [
  ["O=C1C=CC(=O)N1 [maleimide]", "false (0)"],
  ["Cc1cc2ncn(CC3C(=O)C4CCN3CC4)c2cc1C (centres unmarked)", "false (0)"],
  ["CN1C(=O)C=CC1=O [N-methylmaleimide]", "false (0)"],
  ["C=Cc1nc2ccccc2c(=O)[nH]1", "true (1)"],
  ["COc1ncnc2c1ncn2CC1C(=O)C2CCN1CC2 (centres unmarked)", "false (0)"],
  ["Nc1ncnc2nnn(CC3C(=O)C4CCN3CC4)c12 (centres unmarked)", "true (1)"],
  ["Cn1c(=O)c2c([nH]c(=O)n2CC2C(=O)C3CCN2CC3)n(C)c1=O (centres unmarked)", "false (0)"]
]}

* * *

Test system: H1299-His-175 lung adenocarcinoma cells
assay_protocol: WST-1 growth inhibition by structural analogues, H1299-His-175 cells with or without doxycycline
Format: cell-based, human
condition: ratio IC50p53null/IC50mtp53
Overview of reported R H1299-His175 across a group of molecules:
endpoint_label: R H1299-His175

{"columns": ["molecule", "endpoint_label", "observed_result"],
 "data": [
  ["O=C1C=CC(=O)N1 [maleimide]", "R H1299-His175", 1.73],
  ["COc1ncnc2c1ncn2CC1C(=O)C2CCN1CC2 (centres unmarked)", "R H1299-His175", 1.5],
  ["O=C1C2CCN(CC2)C1CN1C=NC2C(Cl)=NC(Cl)=NC21 (centres unmarked)", "R H1299-His175", 1.53],
  ["Nc1ncnc2nnn(CC3C(=O)C4CCN3CC4)c12 (centres unmarked)", "R H1299-His175", 1.27],
  ["C=Cc1nc2ccccc2c(=O)[nH]1 [2-ethylene-4(3H)-quinazolinone]", "R H1299-His175", 2.8],
  ["CN1C(=O)C=CC1=O [N-methylmaleimide]", "R H1299-His175", 1.86],
  ["Cn1c(=O)c2c([nH]c(=O)n2CC2C(=O)C3CCN2CC3)n(C)c1=O (centres unmarked)", "R H1299-His175", 1.26],
  ["Cc1cc2ncn(CC3C(=O)C4CCN3CC4)c2cc1C (centres unmarked)", "R H1299-His175", 1.51]
]}

* * *

Overview of reported pIC50 across a group of compounds:
System: H1299-His-175 lung adenocarcinoma cells
assay_protocol: WST-1 growth inhibition by structural analogues, H1299-His-175 cells with or without doxycycline
Format: cell-based, human
condition: Homo sapiens; Dox− (mutant p53 expressed), 48 h, WST-1; read-out: IC50 H1299-His175 Dox−
pIC50: −log10 of the molar value.

{"columns": ["compound", "pIC50"],
 "data": [
  ["Cc1cc2ncn(CC3C(=O)C4CCN3CC4)c2cc1C (centres unmarked)", 5.32],
  ["Nc1ncnc2nnn(CC3C(=O)C4CCN3CC4)c12 (centres unmarked)", 5.48],
  ["CN1C(=O)C=CC1=O [N-methylmaleimide]", 5.54],
  ["C=Cc1nc2ccccc2c(=O)[nH]1", 5.85],
  ["O=C1C2CCN(CC2)C1CN1C=NC2C(Cl)=NC(Cl)=NC21 (centres unmarked)", 5.49],
  ["O=C1C=CC(=O)N1 [maleimide]", 5.52],
  ["Cn1c(=O)c2c([nH]c(=O)n2CC2C(=O)C3CCN2CC3)n(C)c1=O (centres unmarked)", 5.39],
  ["COc1ncnc2c1ncn2CC1C(=O)C2CCN1CC2 (centres unmarked)", 4.81]
]}

Taken from patent US7659278B2.
